# Tested on: SK-MEL-2 melanoma
# test.details: NCI-60 one-dose screen, 48 h (100 = growth as untreated, 0 = no growth, -100 = all killed)
# condition.notes: 10 µM unless noted
# Description: Growth inhibition of the SK-MEL-2 human tumor cell line is measured as a screen for anti-cancer activity. Cells are grown in 96 well plates and exposed to the test compound for 48 hours. Compounds are tested at a single concentration, which is 10^-5 M for most compounds. The reported endpoint is percent growth (GI% or GIPRCNT), where numbers from 0 - 100% represent growth inhibition, and numbers from -100% - 0 represent cell death. For example, a value of 40 represents 60% growth inhibition. […]
This is part of a sample that, as a whole, favours compounds with a hit. Of some 83,000 tested, about 20% had one in any assay.

[
  {
    "compound": "CNC(=O)c1c(NC(=O)c2ccc(C(C)(C)C)cc2)sc2c1CCC(=O)C2",
    "growth / %": -2.66
  },
  {
    "compound": "Oc1ccccc1-c1nc2ccccn2c1NCCN1CCOCC1",
    "growth / %": 106
  },
  {
    "compound": "COc1cc2cc(Oc3ccc(NC(=O)Nc4cc(C(F)(F)F)cc(C(F)(F)F)c4)cc3)c(C)nc2cc1OCCN1CCCCC1",
    "growth / %": -35.6
  },
  {
    "compound": "C=C(CNCCc1ccc(O)cc1)[C@@H]1CC[C@]2(COC3CCCCO3)CC[C@]3(C)[C@H](CC[C@@H]4[C@@]5(C)CCC(NCCO)C(C)(C)[C@@H]5CC[C@]43C)[C@@H]12 (some centres undefined)",
    "growth / %": -81.3
  },
  {
    "compound": "CCCN1CCN(c2ccc3nc(-c4ccc5nc(-c6cc(OC)c(OC)c(OC)c6)[nH]c5c4)[nH]c3c2)CC1",
    "growth / %": 70.9
  },
  {
    "compound": "O=C(O)C1C[C@](O)(c2ccc(F)cc2)[C@@H](c2ccc(F)cc2)O1 (some centres undefined)",
    "growth / %": 102
  },
  {
    "compound": "CCCNCC(=O)Nc1ccc(C(=O)OC(C)(C)CC)cc1",
    "growth / %": 95.6
  },
  {
    "compound": "Cc1[nH]c(-c2nc3ccccc3[nH]2)c(C)c1C(=O)NNc1ccc(Cl)cc1",
    "growth / %": 103
  },
  {
    "compound": "CCCCNC(=O)c1cc(NCc2cc(O)ccc2O)ccc1O",
    "growth / %": 93.6
  }
]

----------
Catalogue of growth values
# Test system: HCC-2998 colon
# test.details: NCI-60 one-dose screen, 48 h (100 = growth as untreated, 0 = no growth, -100 = all killed)
# condition.notes: 10 µM unless noted
The panel holds about 83,000 compounds, 20% with a hit somewhere; the sample as a whole holds those more often.

[
  {
    "molecule.smiles": "Nc1ccc(CCCCc2ccccc2)c(Cl)c1",
    "unit.info": "%",
    "growth": 113
  },
  {
    "molecule.smiles": "CN1CCN(c2ccc3nc(/N=C/c4ccc5sc(-c6ccc([N+](=O)[O-])cc6)nc5c4)sc3c2)CC1",
    "unit.info": "%",
    "growth": 101
  },
  {
    "molecule.smiles": "O=S(=O)(NCCNc1cc(-c2c(-c3cccc(O)c3)nc3sccn23)ccn1)c1ccc(Br)cc1",
    "unit.info": "%",
    "growth": 95.3
  },
  {
    "molecule.smiles": "Cc1cc(-c2ccccc2)cc(SC#N)[n+]1[O-]",
    "unit.info": "%",
    "growth": 62
  },
  {
    "molecule.smiles": "COc1cc2oc(-c3cccc(C(=O)Nc4ccc(C#N)cc4)c3)cc(=O)c2c(O)c1OC",
    "unit.info": "%",
    "growth": 83.1
  }
]

----------
# System: HCT-15 colon
# test.details: NCI-60 one-dose screen, 48 h (100 = growth as untreated, 0 = no growth, -100 = all killed)
# condition.notes: 10 µM unless noted
This is part of a sample that, as a whole, favours compounds with a hit. Of some 83,000 tested, about 20% had one in any assay.

[
  {
    "molecule.smiles": "CN(C)CCCCNc1ccc(NCCCCN(C)C)c2c1C(=O)c1c(O)ccc(O)c1C2=O",
    "growth (%)": -66.4
  },
  {
    "molecule.smiles": "O=S(=O)(NCCNc1cc(-c2c(-c3cccc(O)c3)nc3sccn23)ccn1)c1ccc(Br)cc1",
    "growth (%)": 44.8
  },
  {
    "molecule.smiles": "CCCCCCNC(=O)c1cc(NCc2cc(O)ccc2O)ccc1O",
    "growth (%)": 34.6
  },
  {
    "molecule.smiles": "COc1cc2ccccc2cc1C(=O)NC(=S)Nc1ccc(-c2nc3ccccc3[nH]2)cc1",
    "growth (%)": 78.5
  },
  {
    "molecule.smiles": "COc1ccc(-c2nc3ccccn3c2/C=C/C(=O)c2cc(OC)c(OC)c(OC)c2)cc1",
    "growth (%)": 50.4
  }
]

----------
# Test system: CAKI-1 renal
# test.details: NCI-60 one-dose screen, 48 h
# condition.notes: 10 µM unless noted
The panel holds about 83,000 compounds, 20% with a hit somewhere; the sample as a whole holds those more often. Activity calls are given as the source filed them. The calls were made as follows: active = growth percent below 10; inactive = the rest.
Outcome codes: 1.0 = active, 0.0 = inactive

[
  {
    "molecule.smiles": "NC(N)=N/N=C(/c1ccccc1)c1ccc(N)cc1",
    "study.system": "CAKI-1 renal",
    "assigned.label": 1.0
  },
  {
    "molecule.smiles": "COc1ccc(Cn2cnc3cc(C(=O)Nc4cccc5ccccc45)ccc32)c(OC)c1",
    "study.system": "CAKI-1 renal",
    "assigned.label": 0.0
  },
  {
    "molecule.smiles": "Nc1c(C(=O)Nc2ccccc2)sc2nc3c(cc12)CCCCCC3",
    "study.system": "CAKI-1 renal",
    "assigned.label": 0.0
  },
  {
    "molecule.smiles": "Cc1nc(Nc2ccc(NC(=S)Nc3ccccc3)cc2)c2ccccc2n1",
    "study.system": "CAKI-1 renal",
    "assigned.label": 0.0
  },
  {
    "molecule.smiles": "c1ccc2c(c1)nc(-n1ccnc1)c1nc3ccccc3n12",
    "study.system": "CAKI-1 renal",
    "assigned.label": 0.0
  },
  {
    "molecule.smiles": "COc1ccc(/C=C(\\C#N)n2nnc3cc(F)c(F)cc32)c(OC)c1OC",
    "study.system": "CAKI-1 renal",
    "assigned.label": 0.0
  },
  {
    "molecule.smiles": "CS(=O)(=O)c1ccc(-c2[nH]c3ccc(F)cc3c2/C=N/O)cc1",
    "study.system": "CAKI-1 renal",
    "assigned.label": 0.0
  },
  {
    "molecule.smiles": "Cc1cc(-c2ccc(N(C)C)cc2)c2sc(=O)[nH]c2n1",
    "study.system": "CAKI-1 renal",
    "assigned.label": 0.0
  },
  {
    "molecule.smiles": "CC(=O)Nc1nccs1",
    "study.system": "CAKI-1 renal",
    "assigned.label": 0.0
  },
  {
    "molecule.smiles": "N[C@H]1CCC[C@@H]1NCCCCN1C(=O)c2cccc3cccc(c23)C1=O",
    "study.system": "CAKI-1 renal",
    "assigned.label": 0.0
  },
  {
    "molecule.smiles": "Nc1ccc(CCCCc2ccccc2)c(Cl)c1",
    "study.system": "CAKI-1 renal",
    "assigned.label": 0.0
  }
]

----------
# Tested on: MALME-3M melanoma
# test.details: NCI-60 one-dose screen, 48 h
# condition.notes: 10 µM unless noted
This is part of a sample that, as a whole, favours compounds with a hit. Of some 83,000 tested, about 20% had one in any assay. Active and inactive are the calls of the source. How the source made its calls: active means growth percent below 10; inactive means the rest.
Outcome codes: active, inactive

[
  {
    "molecule": "Cc1nc(Nc2ccc(NC(=S)Nc3ccccc3)cc2)nc2nc(Nc3cccc(Cl)c3)[nH]c(=O)c12",
    "study.system": "MALME-3M melanoma",
    "assigned.label": "inactive"
  },
  {
    "molecule": "C=C1C(=O)O[C@H]2[C@H]1CC/C(COC(=O)NCc1ccc(Cn3c(=O)sn(CCCCl)c3=O)cc1)=C\\CC[C@@]1(C)O[C@@H]21",
    "study.system": "MALME-3M melanoma",
    "assigned.label": "active"
  },
  {
    "molecule": "CC(C)(C)CC(C)(C)Nc1c(-c2ccc(-c3ccccc3)cc2)nc2cnccn12",
    "study.system": "MALME-3M melanoma",
    "assigned.label": "inactive"
  },
  {
    "molecule": "CCCCCCN(CCCCCC)CC(O)c1cccc2ccc(Cl)cc12 (stereo not drawn)",
    "study.system": "MALME-3M melanoma",
    "assigned.label": "inactive"
  },
  {
    "molecule": "C=C(C)[C@@H]1CC[C@]2(CNCCO)CC[C@]3(C)[C@H](CC[C@@H]4[C@@]5(C)CCC(N)[C@@](C)(CO)[C@@H]5CC[C@]43C)[C@@H]12 (stereo partly drawn)",
    "study.system": "MALME-3M melanoma",
    "assigned.label": "active"
  },
  {
    "molecule": "Cc1cc(N(CCCNc2ccnc3cc(Cl)ccc23)Cc2ccccn2)nc(N2CCOCC2)n1",
    "study.system": "MALME-3M melanoma",
    "assigned.label": "inactive"
  },
  {
    "molecule": "COc1ccc(-c2cn(-c3cccc(C(=O)/C=C/c4cc(OC)c(OC)c(OC)c4)c3)c(=O)[nH]2)cc1",
    "study.system": "MALME-3M melanoma",
    "assigned.label": "inactive"
  },
  {
    "molecule": "CCN(CCO)CC(=O)c1cc(Cl)cc(Cl)c1Cl",
    "study.system": "MALME-3M melanoma",
    "assigned.label": "inactive"
  }
]
